Test system: RSV Long strain
Test: Viral cytopathic effect (CPE) assay, anti-RSV activity
Format: cell-based, Respiratory Syncytial Virus
Details: human respiratory syncytial virus, 144 h, RSV Long strain (ATCC); cell viability after 6 days, Cell Counting kit-8
# EC50 listing for each entry below

>  <Compound>
NCCNc1cc(N2CCCc3cc(F)ccc3C2)nc2ccccc12 [Example 118-16]

>  <Measured Target>
RSV Long strain

>  <EC50>
0.695 µM

$$$$
>  <Compound>
Cc1ccc2nc(N3CC[S+]([O-])c4ccccc4C3)nc(NCCN)c2c1 (stereo not drawn) [Example 89]

>  <Measured Target>
RSV Long strain

>  <EC50>
0.007 µM

$$$$
>  <Compound>
Cc1ccc2nc(N3CCC(F)(F)c4ccccc4C3)cc(NCC3(N)COC3)c2c1 [Example 110-1]

>  <Measured Target>
RSV Long strain

>  <EC50>
0.017 µM

$$$$
>  <Compound>
N[C@@H]1CN(c2cc(N3CC[S+]([O-])c4ccccc4C3)nc3ccc(Cl)cc23)C[C@H]1F (relative stereo) [Example 19-7]

>  <Measured Target>
RSV Long strain

>  <EC50>
6.86 µM

$$$$
>  <Compound>
Cc1ccc2nc(N3CCS(=O)(=O)c4ccccc4C3)cc(S(=O)(=O)c3ccccc3)c2c1 [Example 102]

>  <Measured Target>
RSV Long strain

>  <EC50>
9.76 µM

$$$$
>  <Compound>
Cc1ccc2nc(N3CCS(=O)(=O)c4ccccc4C3)cc(N3CC(N)CC3=O)c2c1 (stereo not drawn) [Example 73]

>  <Measured Target>
RSV Long strain

>  <EC50>
6.98 µM

$$$$
>  <Compound>
CCc1ccc2nc(N3CCS(=O)(=O)c4ccccc4C3)cc(CCC(=O)O)c2c1 [Example 95]

>  <Measured Target>
RSV Long strain

>  <EC50>
3.04 µM

$$$$
>  <Compound>
Cc1ccc2nc(N3CCS(=O)(=O)c4ccccc4C3)cc(NCCC#N)c2c1 [Example 83]

>  <Measured Target>
RSV Long strain

>  <EC50>
0.662 µM

$$$$
>  <Compound>
Cc1ccc2nc(N3CCS(=O)(=O)c4cc(Oc5ccccc5)ccc4C3)cc(NCC3(N)COC3)c2c1 [Example 35]

>  <Measured Target>
RSV Long strain

>  <EC50>
2.79 µM

$$$$
>  <Compound>
Cc1ccc2nc(N3CC(=O)Nc4ccccc4C3)cc(NCCN)c2c1 [Example 133-1]

>  <Measured Target>
RSV Long strain

>  <EC50>
0.31 µM

$$$$
>  <Compound>
O=S1(=O)CCN(c2cc(NC3CNC3)c3cc(Cl)ccc3n2)Cc2ccccc21 [Example 22]

>  <Measured Target>
RSV Long strain

>  <EC50>
0.036 µM

$$$$
>  <Compound>
Cc1ccc2nc(N3CCS(=O)(=O)c4ccccc4C3)cc(N3CC[C@@H](O)C3)c2c1 [Example 15-4]

>  <Measured Target>
RSV Long strain

>  <EC50>
0.257 µM

$$$$
>  <Compound>
O=S1(=O)CCN(c2cc(NCCO)c3cnccc3n2)Cc2ccccc21 [Example 12-2]

>  <Measured Target>
RSV Long strain

>  <EC50>
0.315 µM

$$$$
>  <Compound>
Cc1ccc2nc(N3Cc4ccccc4S(=O)(=O)C(C)C3)cc(NCCN)c2c1 (stereo not drawn) [Example 69-1]

>  <Measured Target>
RSV Long strain

>  <EC50>
0.007 µM

$$$$
>  <Compound>
Cc1ccc2nc(N3CCS(=O)(=O)c4ccccc4C3)cc(NCCCCCCCCN)c2c1 [Example 12-5]

>  <Measured Target>
RSV Long strain

>  <EC50>
0.448 µM

$$$$
